# polymerase ribozyme fitness (log ratio) per entry
B1: TPR t1 (parent)
chain: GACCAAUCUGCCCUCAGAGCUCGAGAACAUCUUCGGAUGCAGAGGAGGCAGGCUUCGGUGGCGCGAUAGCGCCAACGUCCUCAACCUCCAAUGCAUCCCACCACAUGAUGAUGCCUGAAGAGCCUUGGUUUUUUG

variants of: B1; assay: polymerase ribozyme fitness, log enrichment relative to wild type (log ratio); higher = more active; in vitro selection for triplet polymerase activity
Answer field: number only, no words.

Here is how some variants turned out for polymerase ribozyme fitness (log ratio).
Mutant Designation: G71A A118G
Observed Value: -0.577
//
Mutant Designation: G23A C73A
Observed Value: -5.86
//
Mutant Designation: C56U U112C G117C G120U G127C U132A
Observed Value: -4.94

# polymerase ribozyme fitness (log ratio) lookup, item G36A C94A
-2.77

Another variant to check: G113A C123A
-1.45

Another variant to check: C20U C22G G47A C72U C73U C101G A119G G122U
-6.75

Another variant to check: A18U C104A
-4.32

Another variant to check: C56G A74U
-0.327
